Target: DNA repair protein RAD51 homolog 1 (Homo sapiens, UniProt Q06609)
Sequence (Q06609 whole entry): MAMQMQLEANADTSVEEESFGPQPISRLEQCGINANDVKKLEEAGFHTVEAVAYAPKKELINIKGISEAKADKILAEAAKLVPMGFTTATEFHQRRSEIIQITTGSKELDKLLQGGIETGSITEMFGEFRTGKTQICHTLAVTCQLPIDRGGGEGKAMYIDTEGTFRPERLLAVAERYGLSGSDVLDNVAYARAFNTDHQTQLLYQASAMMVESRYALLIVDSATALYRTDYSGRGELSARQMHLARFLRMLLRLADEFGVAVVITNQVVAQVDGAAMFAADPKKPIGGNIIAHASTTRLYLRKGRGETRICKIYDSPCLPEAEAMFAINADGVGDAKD
Assay: Displacement of N-terminal biotinylated-BRC4 from recombinant human Rad51 expressed in Escherichia coli by ELISA
Details: read-out: EC50
measurement_kind: EC50 (µM)

Worked examples follow.
input_smiles	study_target	EC50 / µM
O=C(CSc1nnc(Cn2c(=O)sc3ccccc32)n1CCCc1ccccc1)NC1CCC1	DNA repair protein RAD51 homolog 1 (Homo sapiens, UniProt Q06609)	42
O=C(CSc1nnc(Cn2c(=O)sc3ccccc32)n1CCCc1ccccc1)NC1CCCC1	DNA repair protein RAD51 homolog 1 (Homo sapiens, UniProt Q06609)	25
O=C(CSc1nnc(Cn2c(=O)sc3ccccc32)n1CCc1ccccc1)Nc1ccccc1	DNA repair protein RAD51 homolog 1 (Homo sapiens, UniProt Q06609)	95
Cc1ccccc1CCn1c(Cn2c(=O)sc3ccccc32)nnc1SCC(=O)NC1CCCC1	DNA repair protein RAD51 homolog 1 (Homo sapiens, UniProt Q06609)	100
O=C(CSc1nnc(Cn2c(=O)sc3ccccc32)n1CCc1ccccc1)NC1CCCC1	DNA repair protein RAD51 homolog 1 (Homo sapiens, UniProt Q06609)	53

P: O=C(CSc1nnc(Cn2c(=O)sc3ccccc32)n1CCCc1ccccc1)NC1CC1
Q: O=C(CSc1nnc(Cn2c(=O)sc3ccccc32)n1CCCc1ccccc1)NC1CCCCC1
R: O=C(CSc1nnc(Cn2c(=O)oc3ccccc32)n1CCCc1ccccc1)NC1CCCC1
Asked: Form: Sort by [EC50] Order [ ascending ] Returns: the labels arranged in the requested order.
Given back: Q, P, R
(Q: 8 µM, P: 24 µM, R: 90 µM)

Values compiled from ChEMBL document CHEMBL4480388.
